Just for reference, patent US12611406B2 is where these values come from.

- ASSAY DETAILS: 14-day daily oral repeated-dose DRF study in cynomolgus monkeys (mesylate salt)
- Assay type: in vivo
- EXPERIMENTAL CONTEXT: both sexes, cynomolgus monkey, plasma, oral, in general, all groups; read-out: mean terminal plasma elimination half-lives
RECORDED METRIC: half-life

compound="CC(C)C[C@@H]1NCCN([C@@H](CC(C)C)C(=O)N2CCC3(C[C@@H]2C)OCC(CN2CCCC2)CO3)C1=O (stereo partly shown) [Compound 1]" result="4.4 to 8.4 h"

----------
- ASSAY DETAILS: 14-day daily oral repeated-dose DRF study in cynomolgus monkeys (mesylate salt)
- Format: in vivo
- EXPERIMENTAL CONTEXT: cynomolgus monkey, plasma, po, 4 mg/kg, 4 mg/kg (Gr. 1), Day 1
RECORDED METRIC: Tmax (h)

molecule="CC(C)C[C@@H]1NCCN([C@@H](CC(C)C)C(=O)N2CCC3(C[C@@H]2C)OCC(CN2CCCC2)CO3)C1=O (stereo partly shown) [Compound 1]" recorded_metric=Tmax result=1

----------
- ASSAY DETAILS: 28-day once weekly oral repeated-dose DRF study in cynomolgus monkeys (mesylate salt)
- Format: in vivo
- EXPERIMENTAL CONTEXT: male, cynomolgus monkey, whole blood, po, 45 mg/kg, M, Day 22
RECORDED METRIC: Tmax

compound="CC(C)C[C@@H]1NCCN([C@@H](CC(C)C)C(=O)N2CCC3(C[C@@H]2C)OCC(CN2CCCC2)CO3)C1=O (stereo partly shown)" result="1.25 h"

----------
- ASSAY DETAILS: Single dose oral gavage or intravenous PK in female cynomolgus monkeys, plasma
- Type: in vivo
- EXPERIMENTAL CONTEXT: female, cynomolgus monkey, plasma; IV 0.2 mg/kg
RECORDED METRIC: AUC(0-t)

molecule="CC(C)C[C@@H]1NCCN([C@@H](CC(C)C)C(=O)N2CCC3(C[C@@H]2C)OCC(CN2CCCC2)CO3)C1=O (stereo partly shown)" result="76.2 ng·h/mL"

----------
- ASSAY DETAILS: Single dose oral and intravenous PK in CD-1 mice (mesylate salt), blood
- Assay type: in vivo
- Parameters: unit not given here
- EXPERIMENTAL CONTEXT: male, CD-1, mouse, whole blood; oral 50 mg/kg
RECORDED METRIC: AUC(0-t)

molecule="CC(C)C[C@@H]1NCCN([C@@H](CC(C)C)C(=O)N2CCC3(C[C@@H]2C)OCC(CN2CCCC2)CO3)C1=O (stereo partly shown)" result=2.88

----------
- ASSAY DETAILS: 5-day daily oral repeated-dose pilot study in Beagle dogs (mesylate salt)
- Format: in vivo
- EXPERIMENTAL CONTEXT: both sexes, Beagle, dog, plasma, po, 1.5 mg/kg, Day 1
RECORDED METRIC: Cmax (ng/mL)

compound="CC(C)C[C@@H]1NCCN([C@@H](CC(C)C)C(=O)N2CCC3(C[C@@H]2C)OCC(CN2CCCC2)CO3)C1=O (stereo partly shown) [Compound 1]" result=25.4

----------
- ASSAY DETAILS: 28-day once weekly oral repeated-dose DRF study in cynomolgus monkeys (mesylate salt)
- Format: in vivo
- EXPERIMENTAL CONTEXT: female, cynomolgus monkey, whole blood, po, 30 mg/kg, F, Day 1
RECORDED METRIC: Cmax (ng/mL)

compound="CC(C)C[C@@H]1NCCN([C@@H](CC(C)C)C(=O)N2CCC3(C[C@@H]2C)OCC(CN2CCCC2)CO3)C1=O (stereo partly shown) [Compound 1]" result=296
